# ASSAY_METHOD_TEXT: amyloid nucleation score (Sup35N fusion, yeast selection) (log enrichment); library NNK3; higher = more nucleation; inactive = no reads after selection;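 further: zero at mode of non-aggregating sequences after 7 days selection at 30°C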
METRIC_NAME: amyloid nucleation score

These recorded examples may help you get a feel for the data.
SUBSTANCE: PQCESLMYCGD
amyloid nucleation score: inactive
--
SUBSTANCE: FQLWVKRTYNAEGNLYSPDD
amyloid nucleation score: inactive
--
SUBSTANCE: LLVCSWC
amyloid nucleation score: 2.1
--
SUBSTANCE: RRPVYIIASNLDYMQTSCIT
amyloid nucleation score: inactive
--
SUBSTANCE: TCFLRRFYWRYSGFYATAHY
amyloid nucleation score: inactive
--
SUBSTANCE: ACYITTFLGADSVVEYQNDE
amyloid nucleation score: inactive

Enquiry: Would you mind telling me what amyloid nucleation score value was observed for KRYNRFIGHLMTLYRASMGD ?
Return: -0.714

Enquiry: Would you mind telling me what amyloid nucleation score value was observed for ILDMSERFQILNNFR ?
Return: inactive

Enquiry: Would you mind telling me what amyloid nucleation score value was observed for VSFELYMHFSSFSYFGMLKG ?
Return: 1.16

---

# ASSAY_METHOD_TEXT: amyloid nucleation score (Sup35N fusion, yeast selection) (log enrichment); library NNK3; higher = more nucleation; inactive = no reads after selection
METRIC_NAME: amyloid nucleation score

SUBSTANCE: SKPACRRFTLNDQKRKVEWI
REPORTED: inactive
//
SUBSTANCE: YVKPDDDAQVKVGWGQFSVG
REPORTED: inactive
//
SUBSTANCE: VCDSHQ
REPORTED: inactive
//
SUBSTANCE: DLMTMSYRLMIIFLVDTWPR
REPORTED: inactive
//
SUBSTANCE: HDESQVVLCRYCCSDVRLTH
REPORTED: inactive
//
SUBSTANCE: SRKVRGYLLMTNFVCLSNYV
REPORTED: inactive
//
SUBSTANCE: VPFVRVNDALVVVSLWDKVL
REPORTED: inactive
//
SUBSTANCE: AEQCEPLWCFWKKRSL
REPORTED: 0.792
//
SUBSTANCE: GIIHDVMDTTNGKIVSS
REPORTED: inactive
//
SUBSTANCE: LDRSVMIRFGLELMRWSSGG
REPORTED: 0.356

Enquiry: Would you mind telling me what amyloid nucleation score value was observed for LWHKMSDMV ?
Return: inactive

Enquiry: Would you mind telling me what amyloid nucleation score value was observed for KGALRFITYSSMLVYYLNLG ?
Return: inactive

Enquiry: Would you mind telling me what amyloid nucleation score value was observed for TGVKQCSTFTVFIFAGPVEI ?
Return: 1.74

Enquiry: Would you mind telling me what amyloid nucleation score value was observed for VNGNVDKFQKSKSLGTFVTT ?
Return: inactive

Enquiry: Would you mind telling me what amyloid nucleation score value was observed for GFGYCVWQESGNLRGCRWLW ?
Return: 0.5

Enquiry: Would you mind telling me what amyloid nucleation score value was observed for AVQHIVEFILICQMFTYTHH ?
Return: inactive

Enquiry: Would you mind telling me what amyloid nucleation score value was observed for LMPSDFISSYNSLYDGCLGG ?
Return: inactive

---

Overview of recorded amyloid nucleation score for various substances
# ASSAY_METHOD_TEXT: amyloid nucleation score (Sup35N fusion, yeast selection) (log enrichment); library NNK1; higher = more nucleation; inactive = no reads after selection
Lab note: write the figure by itself, no unit.

These recorded examples may help you get a feel for the data.
SUBSTANCE: MDSTDWRVLLGRSMGWS
amyloid nucleation score: -0.596

SUBSTANCE: FEERFMFYTNIDNLLYPLSA
amyloid nucleation score: 0.848

SUBSTANCE: CFCFLRFYRLQPNAQLDSKS
amyloid nucleation score: 1.69

Enquiry: Would you mind telling me what amyloid nucleation score value was observed for NACRCVYSGRVSAYDVRVRN ?
Return: 0

Enquiry: Would you mind telling me what amyloid nucleation score value was observed for RNWDMGHKQP ?
Return: 2.66

Enquiry: Would you mind telling me what amyloid nucleation score value was observed for DSSVLRMQRVDRTRAFTYHW ?
Return: -0.68

Enquiry: Would you mind telling me what amyloid nucleation score value was observed for HCFRWSMLGLRYATCPFQSD ?
Return: -0.108

Enquiry: Would you mind telling me what amyloid nucleation score value was observed for FFAFYDVHPLHLGDTTLGGW ?
Return: 3.29

Enquiry: Would you mind telling me what amyloid nucleation score value was observed for DHHRFRGLL ?
Return: 0.657

---

Overview of recorded amyloid nucleation score for various substances
# ASSAY_METHOD_TEXT: amyloid nucleation score (Sup35N fusion, yeast selection) (log enrichment); library NNK1; higher = more nucleation; inactive = no reads after selection
Lab note: write the figure by itself, no unit.

These recorded examples may help you get a feel for the data.
SUBSTANCE: RLKHDWWITVCLYRVQLNTV
amyloid nucleation score: 1.59
--
SUBSTANCE: TDIIFIVRYSVVLVSLCSKC
amyloid nucleation score: -0.343
--
SUBSTANCE: KFNIVILLINCAPAFSEMYL
amyloid nucleation score: 5.47
--
SUBSTANCE: SCKVVILLPSVVKACLTVLP
amyloid nucleation score: 0.474
--
SUBSTANCE: NGYWLSFWTSRY
amyloid nucleation score: 1.63
--
SUBSTANCE: CVTLCSDVSYSTYNWLPFIR
amyloid nucleation score: 0.834

Enquiry: Would you mind telling me what amyloid nucleation score value was observed for IVVGCGCPPRINCFV ?
Return: -0.444

Enquiry: Would you mind telling me what amyloid nucleation score value was observed for PMVRMQYDPYIKTMCVVWMR ?
Return: -0.195

Enquiry: Would you mind telling me what amyloid nucleation score value was observed for GICWLISCGRIVAGSSEQYV ?
Return: 0.924

---

# ASSAY_METHOD_TEXT: amyloid nucleation score (Sup35N fusion, yeast selection) (log enrichment); library NNK3; higher = more nucleation; inactive = no reads after selection
METRIC_NAME: amyloid nucleation score

SUBSTANCE: SERQTSLRHLGLRHLFK
METRIC_NAME: amyloid nucleation score
REPORTED: 1.22
//
SUBSTANCE: ILSILMCLQETNTDYNSMNR
METRIC_NAME: amyloid nucleation score
REPORTED: inactive
//
SUBSTANCE: AEGYFRSLSTIRGSLLDLSA
METRIC_NAME: amyloid nucleation score
REPORTED: inactive
//
SUBSTANCE: GVVANFSLPLSAVFAWRSFR
METRIC_NAME: amyloid nucleation score
REPORTED: 2.78
//
SUBSTANCE: PYSISMISTRYCLGRQHD
METRIC_NAME: amyloid nucleation score
REPORTED: inactive

Enquiry: Would you mind telling me what amyloid nucleation score value was observed for NFPNPVVSNLRAYFMD ?
Return: -0.371

Enquiry: Would you mind telling me what amyloid nucleation score value was observed for LLCLLQYLWPRRDSYYACLR ?
Return: 0.782

Enquiry: Would you mind telling me what amyloid nucleation score value was observed for YNVTFQSPVTSWDNHLIMA ?
Return: inactive

Enquiry: Would you mind telling me what amyloid nucleation score value was observed for ILPLMEFGEPKFESSVYSS ?
Return: inactive

Enquiry: Would you mind telling me what amyloid nucleation score value was observed for TVAEMNIMLC ?
Return: 2.37

Enquiry: Would you mind telling me what amyloid nucleation score value was observed for GLRLFYAHRYAC ?
Return: inactive

Enquiry: Would you mind telling me what amyloid nucleation score value was observed for WVHRIAS ?
Return: inactive

---

# ASSAY_METHOD_TEXT: amyloid nucleation score (Sup35N fusion, yeast selection) (log enrichment); library NNK3; higher = more nucleation; inactive = no reads after selection
METRIC_NAME: amyloid nucleation score

SUBSTANCE: ECVFIKFWVEGWKTLWSWSA
amyloid nucleation score: inactive
//
SUBSTANCE: IYGSASNYMFILGIDRSRWA
amyloid nucleation score: 1.14
//
SUBSTANCE: FSYSFVTRDMATYGRTLVKS
amyloid nucleation score: inactive
//
SUBSTANCE: NKIVNECWHLICSFKLGNLQ
amyloid nucleation score: inactive
//
SUBSTANCE: IMCANSEVVKCYCNRTKLEL
amyloid nucleation score: 1.08
//
SUBSTANCE: FMCLFMNHYLKFGTSFPGRG
amyloid nucleation score: 0.974
//
SUBSTANCE: GGNGKAWHVGTVIMCRKLRV
amyloid nucleation score: 2.5
//
SUBSTANCE: GATFVRILSRLIRLSFI
amyloid nucleation score: inactive

Enquiry: Would you mind telling me what amyloid nucleation score value was observed for NYARTFSRKRMVQKTRSGKG ?
Return: -0.077

Enquiry: Would you mind telling me what amyloid nucleation score value was observed for YSQLRARMKCVYLGY ?
Return: inactive

Enquiry: Would you mind telling me what amyloid nucleation score value was observed for FGIWRLCRFFA ?
Return: inactive

Enquiry: Would you mind telling me what amyloid nucleation score value was observed for VFDGWGLFRLSTICMCLQRH ?
Return: inactive

Enquiry: Would you mind telling me what amyloid nucleation score value was observed for GLVVKSKYMRRFPGTR ?
Return: inactive

Enquiry: Would you mind telling me what amyloid nucleation score value was observed for DDVTHISLKKNSDNLGYNSR ?
Return: inactive

Enquiry: Would you mind telling me what amyloid nucleation score value was observed for YRWYQINSGSYLYLASRWCW ?
Return: inactive

Enquiry: Would you mind telling me what amyloid nucleation score value was observed for FNFVYV ?
Return: 0.062

Enquiry: Would you mind telling me what amyloid nucleation score value was observed for VDHRGALVEKFMNNSIWTSF ?
Return: 0.122

Enquiry: Would you mind telling me what amyloid nucleation score value was observed for QNCIHKRRSLGSTCATEWDV ?
Return: -0.399

Enquiry: Would you mind telling me what amyloid nucleation score value was observed for VGHIRVLDEDNNYMSFYDMR ?
Return: inactive

Enquiry: Would you mind telling me what amyloid nucleation score value was observed for TQLLMEFSTVSALDITPCDG ?
Return: inactive

Enquiry: Would you mind telling me what amyloid nucleation score value was observed for YTLMFNCRFALLFYYTFSYG ?
Return: inactive

Enquiry: Would you mind telling me what amyloid nucleation score value was observed for SCVGVRVLCSAVV ?
Return: inactive

Enquiry: Would you mind telling me what amyloid nucleation score value was observed for KWYQVGSVLKRIRLNILRG ?
Return: -1.51

Enquiry: Would you mind telling me what amyloid nucleation score value was observed for TKCLLFFNRGCR ?
Return: 1.1

Enquiry: Would you mind telling me what amyloid nucleation score value was observed for INYLFASRSKQEQLLDWRFS ?
Return: inactive

Provenance of the data: the supplement of paper PMC12042874
